- Tested on: C. parapsilosis
- test.description: Minimum inhibitory concentration, RPMI medium
- Assay type: cell-based
- condition: banded MIC grade
The entries below are paired with their reported MIC grade, C. PARAPSILOSIS, RPMI media.
measurement.type: MIC grade, C. PARAPSILOSIS, RPMI media

compound="CCCCOC1CCC2=NN=C(N)SC2C1 (centres unmarked)" measurement_type="MIC grade, C. PARAPSILOSIS, RPMI media" result="1 (1: ≥20 mg/L)"
compound=NC1=NN=C(CCOCCCc2ccccc2)CS1 measurement_type="MIC grade, C. PARAPSILOSIS, RPMI media" result="4 (4: <1 mg/L)"
compound=COCCCCCCCC1=NN=C(N)SC1 measurement_type="MIC grade, C. PARAPSILOSIS, RPMI media" result="4 (4: <1 mg/L)"
compound=COCCC1=NN=C(N)SC1 measurement_type="MIC grade, C. PARAPSILOSIS, RPMI media" result="2 (2: 5-20 mg/L)"
compound=COCCCCOCCC1=NN=C(N)SC1 measurement_type="MIC grade, C. PARAPSILOSIS, RPMI media" result="3 (3: 1-5 mg/L)"
compound=CCCCOCCC1=NN=C(N)SC1 measurement_type="MIC grade, C. PARAPSILOSIS, RPMI media" result="4 (4: <1 mg/L)"
compound=NC1=NN=C(CCCCSCc2ccc(Cl)cc2)CS1 measurement_type="MIC grade, C. PARAPSILOSIS, RPMI media" result="3 (3: 1-5 mg/L)"
compound=NC1=NN=C(c2ccc(Cl)cc2)CS1 measurement_type="MIC grade, C. PARAPSILOSIS, RPMI media" result="1 (1: ≥20 mg/L)"
compound="CCCC(C)OCCC1=NN=C(N)SC1 (centres unmarked)" measurement_type="MIC grade, C. PARAPSILOSIS, RPMI media" result="3 (3: 1-5 mg/L)"
compound=COCC1=NN=C(N)SC1 measurement_type="MIC grade, C. PARAPSILOSIS, RPMI media" result="2 (2: 5-20 mg/L)"
compound=Cc1ccc(C2=NN=C(N)SC2)cc1 measurement_type="MIC grade, C. PARAPSILOSIS, RPMI media" result="2 (2: 5-20 mg/L)"

---

- Tested on: A. terreus
- test.description: Minimum inhibitory concentration, RPMI medium
- Format: cell-based
- condition: banded MIC grade
measurement.type: MIC grade, A. TERREUS, RPMI media

structure_as_smiles=NC1=NN=C(CCCCOCc2cccc(Oc3ccccc3)c2)CS1 test_system="A. terreus" result="1 (1: ≥20 mg/L)"
structure_as_smiles=COc1ccc(COCCCCC2=NN=C(N)SC2)cc1 test_system="A. terreus" result="1 (1: ≥20 mg/L)"
structure_as_smiles=NC1=NN=C(CCCCOCc2ccccc2C2CC2)CS1 test_system="A. terreus" result="2 (2: 5-20 mg/L)"
structure_as_smiles=NC1=NN=C(CCCCOCc2ccc(C(F)(F)F)cc2)CS1 test_system="A. terreus" result="3 (3: 1-5 mg/L)"
structure_as_smiles=NC1=NN=C(CCCCOCc2ccc(Cl)cc2)CS1 test_system="A. terreus" result="3 (3: 1-5 mg/L)"
structure_as_smiles=NC1=NN=C(CCCCOCc2cccc(C(F)(F)F)c2)CS1 test_system="A. terreus" result="2 (2: 5-20 mg/L)"
structure_as_smiles=CCCCc1cccc(COCCCCC2=NN=C(N)SC2)c1 test_system="A. terreus" result="2 (2: 5-20 mg/L)"
structure_as_smiles=NC1=NN=C(CCOCCOc2ccccc2)CS1 test_system="A. terreus" result="4 (4: <1 mg/L)"
structure_as_smiles=NC1=NN=C(CCCCOCc2ccc(Cl)cc2Cl)CS1 test_system="A. terreus" result="2 (2: 5-20 mg/L)"
structure_as_smiles=NC1=NN=C(CCCCOCc2cc(F)cc(F)c2)CS1 test_system="A. terreus" result="3 (3: 1-5 mg/L)"
structure_as_smiles=NC1=NN=C(CCCCOCc2ccc(F)cc2)CS1 test_system="A. terreus" result="1 (1: ≥20 mg/L)"
structure_as_smiles=NC1=NN=C(CCCCOCc2ccc(Cl)c(F)c2)CS1 test_system="A. terreus" result="3 (3: 1-5 mg/L)"
structure_as_smiles=NC1=NN=C(CCCCOCc2ccc(Br)cc2)CS1 test_system="A. terreus" result="4 (4: <1 mg/L)"
